Listed here are binders together with their documented normalised luminescence at PCT 3.3 pg/ml.
# TEST SYSTEM: Large subunit-rSCFV5 fusion protein
# Sequence (chain, as listed by the source): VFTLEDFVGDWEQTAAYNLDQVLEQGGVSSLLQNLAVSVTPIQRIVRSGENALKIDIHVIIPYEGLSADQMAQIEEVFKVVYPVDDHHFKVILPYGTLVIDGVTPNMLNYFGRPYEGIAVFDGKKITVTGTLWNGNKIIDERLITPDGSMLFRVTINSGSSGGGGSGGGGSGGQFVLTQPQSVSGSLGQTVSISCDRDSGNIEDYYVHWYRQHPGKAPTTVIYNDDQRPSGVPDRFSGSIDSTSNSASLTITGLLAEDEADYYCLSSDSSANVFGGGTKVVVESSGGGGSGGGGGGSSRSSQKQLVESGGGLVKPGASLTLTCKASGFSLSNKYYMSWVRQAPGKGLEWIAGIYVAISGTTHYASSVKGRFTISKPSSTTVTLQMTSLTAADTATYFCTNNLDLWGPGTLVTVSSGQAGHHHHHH
# PROTOCOL TEXT: cell-based or functional assay
MEASURED METRIC: normalised luminescence at PCT 3.3 pg/ml

BINDER	TEST VALUE
VSGWRIHEKIS (peptide, part only; not given: rSCFV18 scFv part, part only) [rSCFV18-small subunit mutant fusion protein RA120]	5260
VEGYRLFDKKW (peptide, part only; not given: rSCFV18 scFv part, part only) [rSCFV18-small subunit mutant fusion protein RB239]	5620
VEGYRLFNKEW (peptide, part only; not given: rSCFV18 scFv part, part only) [rSCFV18-small subunit mutant fusion protein RB284]	5290
VDGWRLHEKIS (peptide, part only; not given: rSCFV18 scFv part, part only) [rSCFV18-small subunit mutant fusion protein RA141]	5410
